Task for the reader: assign each of the following compounds its reported inhibition.
Molecular target: Protein kinase C beta type (Homo sapiens) (UniProt P05771);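 also: measured against the PKC-beta2 splice variant, with values reported as mean percent inhibition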
Sequence (P05771 2-671 limits assumed): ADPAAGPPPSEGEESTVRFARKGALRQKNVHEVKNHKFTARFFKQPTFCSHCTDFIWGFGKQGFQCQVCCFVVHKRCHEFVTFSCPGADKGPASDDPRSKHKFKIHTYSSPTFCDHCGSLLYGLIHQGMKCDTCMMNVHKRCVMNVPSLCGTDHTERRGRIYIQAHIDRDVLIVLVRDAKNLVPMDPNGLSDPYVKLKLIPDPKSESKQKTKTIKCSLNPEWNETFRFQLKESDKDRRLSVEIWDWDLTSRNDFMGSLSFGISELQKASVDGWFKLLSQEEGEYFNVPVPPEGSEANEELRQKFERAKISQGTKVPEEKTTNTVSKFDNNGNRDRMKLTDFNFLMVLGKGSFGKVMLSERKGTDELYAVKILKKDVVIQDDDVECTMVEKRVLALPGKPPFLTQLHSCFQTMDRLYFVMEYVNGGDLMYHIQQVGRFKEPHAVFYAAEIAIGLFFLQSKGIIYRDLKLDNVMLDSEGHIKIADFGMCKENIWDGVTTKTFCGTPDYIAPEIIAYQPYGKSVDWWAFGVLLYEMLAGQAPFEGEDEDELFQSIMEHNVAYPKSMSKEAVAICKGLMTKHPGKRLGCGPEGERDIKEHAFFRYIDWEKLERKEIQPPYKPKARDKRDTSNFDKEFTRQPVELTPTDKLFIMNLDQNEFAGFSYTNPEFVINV
Settings: at 0.1 µM
Description: GSK_PKIS: PKC-beta2 (splice variant) mean inhibition at 0.1 uM [Nanosyn]
Respond numerically; units are % and should not be typed.

Task: inhibition lookup needed for CCS(=O)(=O)c1ccc(OC)c(Nc2nccc(N(C)c3ccc4c(C)n[nH]c4c3)n2)c1 , thanks.
Output: 1.61

Task: Subsequent entry: N#Cc1cccc(Nc2nccc(-c3cnn4ncccc34)n2)c1
Output: 6.33

Task: Subsequent entry: Cc1cc(O)cc(C)c1/C=C/c1cncc(C(=O)N(C)C)c1
Output: 0.19

Task: Subsequent entry: Cc1ccc2c(-c3ccnc(Nc4cccc(C(F)(F)F)c4)n3)c(-c3ccccc3)nn2n1
Output: 1.37

Task: Subsequent entry: Cc1nc(-c2ccccc2)n2nc(NCCCN3CCOCC3)ncc12
Output: 1.18

Task: Subsequent entry: CS(=O)(=O)CCNCc1nc(-c2ccc3ncnc(Nc4ccc(OCc5cccc(C(F)(F)F)c5)cc4)c3c2)cs1
Output: 0.86

Task: Subsequent entry: Cc1cc(Cl)cc2c1NC(=O)C2=NNc1ccc(S(N)(=O)=O)cc1
Output: 0.04

Task: Subsequent entry: CCS(=O)(=O)c1ccc(OC)c(Nc2ncc(-c3cccc(OC)c3)o2)c1
Output: 0.6

Task: Subsequent entry: CS(=O)(=O)Nc1cccc(-c2ccc3c(NC(=O)C4CC4)n[nH]c3c2)c1
Output: -0.25

Task: Subsequent entry: CN(C)c1cc2c(Nc3ccc4c(cnn4Cc4ccccc4)c3)ncnc2cn1
Output: 0.51
